Recorded Inhibition of airway contraction (%) After 1 hour, one value per entry.
tested on: Guinea pigs; test: Acetylcholine-induced airway contraction test under no anesthesia; type: in vivo, guinea pig; conditions: 10 mM solution inhaled for 30 minutes, acetylcholine inhalation 1 hour after completion of administration, sRaw AUC
A number alone suffices; assume %.

Reference set (3 entries):
> print(dat)
                                   molecule  obs.value
1  CCCCC(C)(C)c1ccc(CN(Cc2cccc(NCC(=O)O)n2)S(=O)(=O)c2cccnc2)s1         91
2  CCCC(C)(C)c1ccc(CN(Cc2cccc(NCC(=O)O)n2)S(=O)(=O)c2ccccn2)cc1         90
3  CC(C)(C)c1ccc(CN(Cc2cccc(OCC(=O)O)c2)S(=O)(=O)c2cccnc2)cc1 [Compound A, reference compound]          9

Could you now consider this next molecule?
Inhibition of airway contraction (%) After 1 hour measured on CCCCC(C)(C)c1ccc(CN(Cc2cccc(NCC(=O)O)n2)S(=O)(=O)c2ccccn2)cc1F = 85

Origin of measurements: patent US20120259123A1
